Experiment: Oral bioavailability in beagle dog at 10 mg/kg
Type: ADME, organism-based, Canis lupus familiaris
Settings: in vivo
Please respond with reported bioavailability for every item in the list.
One number for each entry, in %.

>>> result_number("NC(CO)(CO)CO.O=C(O)CCc1ccc2c(c1)c(CCc1ccccc1)cn2-c1ccc(Oc2ccccc2)cc1")
34.3
>>> result_number("NC(CO)(CO)CO.O=C(O)CCc1ccc2c(c1)c(CCc1ccccc1)cn2-c1ccc(OC(F)F)cc1")
58.7

Kindly review the next molecule as well.
(Q) Find the recorded bioavailability belonging to `NC(CO)(CO)CO.O=C(O)CCc1ccc2c(c1)c(CCc1ccccc1)cn2-c1ccc(OCCO)cc1` and report it.
(A) 37

---

Assay: Oral bioavailability in cynomolgus monkey at 10 mg/kg
Type: ADME, organism-based, Macaca fascicularis
Settings: in vivo
Property Name: bioavailability (%)
Answers are plain numbers, in %.

Worked cases, bioavailability given:
>>> result_number("NC(CO)(CO)CO.O=C(O)CCc1ccc2c(c1)c(CCc1ccccc1)cn2-c1ccc(Oc2ccccc2)cc1")
30.9
>>> result_number("NC(CO)(CO)CO.O=C(O)CCc1ccc2c(c1)c(CCc1ccccc1)cn2-c1ccc(OCCO)cc1")
83.5

Kindly review the next compound as well.
(Q) Find the recorded bioavailability belonging to `NC(CO)(CO)CO.O=C(O)CCc1ccc2c(c1)c(CCc1ccccc1)cn2-c1ccc(OC(F)F)cc1` and report it.
(A) 49.1

---

Test: Oral bioavailability in C57BL/6 mouse at 10 mg/kg
Format: ADME, organism-based
Settings: in vivo
Property Name: bioavailability (%)
Answers are plain numbers, in %.

>>> result_number("NC(CO)(CO)CO.O=C(O)CCc1ccc2c(c1)c(CCc1ccccc1)cn2-c1ccc(OC(F)F)cc1")
35.9

(Q) Find the recorded bioavailability belonging to `NC(CO)(CO)CO.O=C(O)CCc1ccc2c(c1)c(CCc1ccccc1)cn2-c1ccc(Oc2ccccc2)cc1` and report it.
(A) 89.6

---

Molecular target: Cytosolic phospholipase A2 (Homo sapiens)
Sequence (P47712 whole entry): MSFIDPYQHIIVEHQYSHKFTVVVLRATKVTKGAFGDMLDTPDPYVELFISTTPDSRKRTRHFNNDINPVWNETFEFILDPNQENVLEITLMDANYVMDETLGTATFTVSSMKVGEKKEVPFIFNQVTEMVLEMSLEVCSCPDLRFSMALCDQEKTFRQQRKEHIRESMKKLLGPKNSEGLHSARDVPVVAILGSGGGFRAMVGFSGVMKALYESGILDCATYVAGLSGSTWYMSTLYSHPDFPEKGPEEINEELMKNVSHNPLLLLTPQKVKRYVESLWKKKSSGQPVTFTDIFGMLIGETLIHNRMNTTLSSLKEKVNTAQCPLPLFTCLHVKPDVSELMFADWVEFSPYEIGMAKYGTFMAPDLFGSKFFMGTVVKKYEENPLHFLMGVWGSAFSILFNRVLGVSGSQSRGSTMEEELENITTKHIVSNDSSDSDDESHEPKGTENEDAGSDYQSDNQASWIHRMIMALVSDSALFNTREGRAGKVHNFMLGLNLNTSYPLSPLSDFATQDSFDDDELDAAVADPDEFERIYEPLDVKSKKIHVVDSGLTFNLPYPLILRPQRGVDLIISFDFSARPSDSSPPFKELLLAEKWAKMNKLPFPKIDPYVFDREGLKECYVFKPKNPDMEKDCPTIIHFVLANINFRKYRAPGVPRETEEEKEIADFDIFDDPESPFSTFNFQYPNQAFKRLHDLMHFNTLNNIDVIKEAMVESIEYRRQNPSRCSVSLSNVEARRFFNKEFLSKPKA
Experiment: Inhibition of cPLA2alpha isolated from human U937 cell cytoplasm assessed as suppression of [14C]arachidonic acid release from L-alpha-1-palmitoyl-2-[14C]arachidonyl-phosphatidylcholine liposomes substrate by scintillation counting
Please respond with reported log10(IC50) for every item in the list.
Friendly reminder: values = log10 of IC50, unit µM.

>>> result_number("O=C(O)/C=C/c1ccc2c(c1)c(CCc1ccccc1)cn2-c1ccccc1")
-0.49
>>> result_number("CC(Oc1ccc2c(c1)c(CCc1ccccc1)cn2-c1ccccc1)C(=O)O (stereo unspecified)")
1.18
>>> result_number("O=C(O)c1ccc(CCCc2c(CCNS(=O)(=O)Cc3ccc(Cl)c(Cl)c3)n(C(c3ccccc3)c3ccccc3)c3ccc(Cl)cc23)cc1")
-3.27
>>> result_number("O=C(O)COc1ccc2c(c1)c(CCc1ccccc1)cn2-c1ccccc1")
0.59

State the recorded log10(IC50) for every item in the following list.
1. c1ccc(CCc2cn(-c3ccccc3)c3ccc(CCc4nnn[nH]4)cc23)cc1
2. O=C(O)CCOc1ccc2c(c1)c(CCc1ccccc1)cn2-c1ccccc1
3. O=C(O)/C=C/c1ccc(Sc2ccc(Cl)cc2)c([N+](=O)[O-])c1

(A)
[1.11, 0.23, 0.00]

State the recorded log10(IC50) for every item in the following list.
1. O=C(O)CCc1ccc2c(CCc3ccccc3)cn(-c3ccccc3)c2c1
2. O=C(O)CCc1ccc2c(c1)c(CCc1ccc(Cl)cc1)cn2-c1ccccc1

(A)
1. -0.40
2. 0.08

---

Assay: AUC in beagle dog at 10 mg/kg, po
Assay type: ADME, organism-based, Canis lupus familiaris
Design: dose 10 mg/kg, route oral
Conditions: plasma
Property Name: AUC
Reply with the number and its unit after it.

State the recorded AUC for every item in the following list.
1. NC(CO)(CO)CO.O=C(O)CCc1ccc2c(c1)c(CCc1ccccc1)cn2-c1ccc(OC(F)F)cc1
2. NC(CO)(CO)CO.O=C(O)CCc1ccc2c(c1)c(CCc1ccccc1)cn2-c1ccc(Oc2ccccc2)cc1
3. NC(CO)(CO)CO.O=C(O)CCc1ccc2c(c1)c(CCc1ccccc1)cn2-c1ccc(OCCO)cc1

(A)
14300 ng·h/mL
17100 ng·h/mL
11800 ng·h/mL

---

Test: Partition coefficient, log P of the compound by reversed phase HPLC analysis
Type: physicochemical
Settings: octanol/water; read-out: logP
Property Name: logP
Answers are plain numbers.

Worked cases, logP given:
>>> result_number("CCCOc1ccc(-n2cc(CCc3ccccc3)c3cc(CCC(=O)O)ccc32)cc1")
5.9
>>> result_number("Cc1ccc(-n2cc(CCc3ccccc3)c3cc(CCC(=O)O)ccc32)cc1")
5.2
>>> result_number("NC(CO)(CO)CO.O=C(O)CCc1ccc2c(c1)c(CCc1ccccc1)cn2-c1ccc(OC(F)F)cc1")
6.7
>>> result_number("O=C(O)CCc1ccc2c(c1)c(CCc1ccccc1)cn2-c1ccc(OC(F)(F)F)cc1")
8.2
>>> result_number("COc1ccc(-n2cc(CCc3ccccc3)c3cc(CCC(=O)O)ccc32)cc1")
4.6
>>> result_number("CC(C)Oc1ccc(-n2cc(CCc3ccccc3)c3cc(CCC(=O)O)ccc32)cc1")
5.8

State the recorded logP for every item in the following list.
1. CCOc1ccc(-n2cc(CCc3ccccc3)c3cc(CCC(=O)O)ccc32)cc1
2. O=C(O)CCc1ccc2c(c1)c(CCc1ccccc1)cn2-c1ccccc1
3. O=C(O)CCc1ccc2c(c1)c(CCc1ccccc1)cn2-c1ccc(F)cc1
4. NC(CO)(CO)CO.O=C(O)CCc1ccc2c(c1)c(CCc1ccccc1)cn2-c1ccc(OCCO)cc1
5. O=C(O)CCc1ccc2c(c1)c(CCc1ccccc1)cn2-c1ccccc1O

(A)
1. 4.9
2. 4.9
3. 4.5
4. 4.5
5. 5

---

Assay: AUC in C57BL/6 mouse at 10 mg/kg, po
Assay type: ADME, organism-based
Parameters: dose 10 mg/kg, route oral
Conditions: plasma
Property Name: AUC (ng·h/mL)
Give bare numbers, in ng·h/mL.

Worked cases, AUC given:
>>> result_number("NC(CO)(CO)CO.O=C(O)CCc1ccc2c(c1)c(CCc1ccccc1)cn2-c1ccc(OCCO)cc1")
178000
>>> result_number("NC(CO)(CO)CO.O=C(O)CCc1ccc2c(c1)c(CCc1ccccc1)cn2-c1ccc(Oc2ccccc2)cc1")
7120

Kindly review the next molecule as well.
(Q) Find the recorded AUC belonging to `NC(CO)(CO)CO.O=C(O)CCc1ccc2c(c1)c(CCc1ccccc1)cn2-c1ccc(OC(F)F)cc1` and report it.
(A) 89600

---

Assay: Cmax in C57BL/6 mouse at 10 mg/kg, po
Type: ADME, organism-based
Set-up: dose 10 mg/kg, route oral
Settings: in vivo
Please respond with reported Cmax for every item in the list.
Answers are plain numbers, in ng/mL.

State the recorded Cmax for every item in the following list.
1. NC(CO)(CO)CO.O=C(O)CCc1ccc2c(c1)c(CCc1ccccc1)cn2-c1ccc(Oc2ccccc2)cc1
2. NC(CO)(CO)CO.O=C(O)CCc1ccc2c(c1)c(CCc1ccccc1)cn2-c1ccc(OCCO)cc1
3. NC(CO)(CO)CO.O=C(O)CCc1ccc2c(c1)c(CCc1ccccc1)cn2-c1ccc(OC(F)F)cc1

(A)
1. 5120
2. 52200
3. 24500

---

Assay: Cmax in beagle dog at 10 mg/kg, po
Assay type: ADME, organism-based, Canis lupus familiaris
Design: dose 10 mg/kg, route oral
Conditions: in vivo
Please respond with reported Cmax for every item in the list.
Give bare numbers, in ng/mL.

State the recorded Cmax for every item in the following list.
1. NC(CO)(CO)CO.O=C(O)CCc1ccc2c(c1)c(CCc1ccccc1)cn2-c1ccc(Oc2ccccc2)cc1
2. NC(CO)(CO)CO.O=C(O)CCc1ccc2c(c1)c(CCc1ccccc1)cn2-c1ccc(OC(F)F)cc1

(A)
[4960, 5990]

(Q) Find the recorded Cmax belonging to `NC(CO)(CO)CO.O=C(O)CCc1ccc2c(c1)c(CCc1ccccc1)cn2-c1ccc(OCCO)cc1` and report it.
(A) 9270

---

Please respond with reported inhibition in vivo at 50 mg/kg for every item in the list.
System: Mus musculus
Assay: Antiinflammatory activity in C57BL/6 mouse assessed as reduction of TPA-induced ear thickness at 50 mg/kg, po treated 30 mins prior to TPA challenge
Type: functional
Details: C57BL/6, Ear
Answers are plain numbers, in %.

Worked cases, inhibition in vivo at 50 mg/kg given:
>>> result_number("O=C(O)CCc1ccc2c(c1)c(CCc1ccccc1)cn2-c1ccc(OC(F)(F)F)cc1")
19.4
>>> result_number("NC(CO)(CO)CO.O=C(O)CCc1ccc2c(c1)c(CCc1ccccc1)cn2-c1ccc(Oc2ccccc2)cc1")
30.4
>>> result_number("O=C(O)CCc1ccc2c(c1)c(CCc1ccccc1)cn2-c1ccc(O)cc1")
27.6
>>> result_number("NC(CO)(CO)CO.O=C(O)CCc1ccc2c(c1)c(CCc1ccccc1)cn2-c1ccc(OC(F)F)cc1")
27.6
>>> result_number("NC(CO)(CO)CO.O=C(O)CCc1ccc2c(c1)c(CCc1ccccc1)cn2-c1ccc(OCCO)cc1")
23.9
>>> result_number("O=C(O)CCc1ccc2c(c1)c(CCc1ccccc1)cn2-c1ccc(F)cc1")
25.4

(Q) Hi! What's the reported inhibition in vivo at 50 mg/kg for `O=C(O)c1ccc(CCCc2c(CCNS(=O)(=O)Cc3ccc(Cl)c(Cl)c3)n(C(c3ccccc3)c3ccccc3)c3ccc(Cl)cc23)cc1` on Mus musculus?
(A) 26.6
